- measuredOn: TYK2 (Homo sapiens)
- Construct: endogenous in cells
- Sequence (P29597 whole entry): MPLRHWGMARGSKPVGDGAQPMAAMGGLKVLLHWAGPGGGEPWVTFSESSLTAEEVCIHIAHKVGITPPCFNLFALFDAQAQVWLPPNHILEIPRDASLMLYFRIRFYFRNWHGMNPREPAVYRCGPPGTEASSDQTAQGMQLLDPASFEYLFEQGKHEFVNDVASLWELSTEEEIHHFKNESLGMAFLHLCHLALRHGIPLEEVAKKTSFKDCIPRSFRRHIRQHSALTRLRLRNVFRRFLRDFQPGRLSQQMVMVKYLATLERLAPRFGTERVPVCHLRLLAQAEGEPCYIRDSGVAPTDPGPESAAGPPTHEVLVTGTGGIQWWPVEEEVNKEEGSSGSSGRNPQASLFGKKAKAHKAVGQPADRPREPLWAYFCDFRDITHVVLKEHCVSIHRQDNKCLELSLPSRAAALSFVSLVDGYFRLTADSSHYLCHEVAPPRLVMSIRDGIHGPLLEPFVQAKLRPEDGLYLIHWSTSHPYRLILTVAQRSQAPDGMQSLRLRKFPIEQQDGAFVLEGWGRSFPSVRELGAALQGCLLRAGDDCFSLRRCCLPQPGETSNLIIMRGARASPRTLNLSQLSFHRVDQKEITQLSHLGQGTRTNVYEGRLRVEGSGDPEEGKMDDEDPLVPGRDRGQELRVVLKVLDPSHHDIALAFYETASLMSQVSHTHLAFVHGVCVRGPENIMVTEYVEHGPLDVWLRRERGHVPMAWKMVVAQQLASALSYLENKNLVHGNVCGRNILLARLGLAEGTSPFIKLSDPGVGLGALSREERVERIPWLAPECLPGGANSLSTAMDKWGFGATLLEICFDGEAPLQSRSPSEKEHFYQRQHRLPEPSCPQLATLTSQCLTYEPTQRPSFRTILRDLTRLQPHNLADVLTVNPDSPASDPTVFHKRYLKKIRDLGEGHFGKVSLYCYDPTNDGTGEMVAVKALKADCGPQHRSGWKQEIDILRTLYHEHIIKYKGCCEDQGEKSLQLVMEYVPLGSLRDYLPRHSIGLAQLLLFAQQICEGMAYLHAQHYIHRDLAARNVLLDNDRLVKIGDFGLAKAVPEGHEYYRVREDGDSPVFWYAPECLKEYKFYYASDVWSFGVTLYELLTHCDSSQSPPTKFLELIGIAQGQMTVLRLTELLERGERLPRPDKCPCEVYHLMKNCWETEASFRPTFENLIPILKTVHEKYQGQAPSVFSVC
- assayText: Kinobeads assay, TYK2
- conditionNotes: mixed Molt4/Ramos lysate, read-out: Inhibition values (IC50) TYK2
For each of the molecules below, state its IC50.

// known answers, use as guide
Cn1cc(Nc2ncc(F)c(NC(CO)c3ccccc3)n2)cn1 (stereo not drawn) [Compound 2] = 1000 to 10000 nM
Cn1cc(Nc2ncc(Cl)c(NC(CO)c3ccccc3)n2)cn1 (stereo not drawn) [Compound 1] = 1000 to 10000 nM
Cn1cc(Nc2ncc(Cl)c(NC(CO)c3cc(F)cc(F)c3)n2)cn1 (stereo not drawn) [Compound 121] = 1000 to 10000 nM
CC(C)(O)Cn1cc(Nc2ncc(Cl)c(NC(CO)c3cccc(F)c3)n2)cn1 (stereo not drawn) [Compound 61] = 1000 to 10000 nM
Cn1cc(Nc2ncc(Cl)c(NC(CO)c3cccc(N4CCOCC4=O)c3)n2)cn1 (stereo not drawn) [Compound 124] = 1000 to 10000 nM

I need IC50 for every entry listed below, if you could help.
1. OCCn1cc(Nc2ncc(Cl)c(NC(CO)c3cccc(F)c3)n2)cn1 (stereo not drawn) [Compound 39]
2. Cc1cnc(Nc2cnn(C)c2)nc1N[C@H](CO)c1cc(F)ccc1F [Compound 163]

Marked response:
100 to 1000 nM
100 to 1000 nM

I need IC50 for every entry listed below, if you could help.
1. CC(C)(C(N)=O)n1cc(Nc2ncc(Cl)c(N[C@H](CO)c3ccccc3F)n2)cn1 [Compound 73]
2. COc1cccc([C@@H](CO)Nc2nc(Nc3cnn(C)c3)ncc2Cl)c1 [Compound 82]
3. Cn1cc(Nc2ncc(C(F)(F)F)c(NC(C)(CO)c3ccccc3)n2)cn1 (stereo not drawn) [Compound 8]
4. NC(=O)Cn1cc(Nc2ncc(Cl)c(N[C@H](CO)c3ccccc3)n2)cn1 [Compound 56]
5. CCn1cc(Nc2ncc(Cl)c(N[C@H](CO)c3cccnc3)n2)cn1 [Compound 97]

Marked response:
1000 to 10000 nM
1000 to 10000 nM
≥ 10000 nM
100 to 1000 nM
1000 to 10000 nM
